Consider the following compounds and their measured Ki readings.
TARGET OR TEST SYSTEM: Sigma 2 receptor
TEST: Inhibition of [3H]DTG binding to Sigma receptor type 2 in rat liver membrane
QUANTITY: Ki (nM)

CC1CCN([C@H](C)COc2ccc(Cl)cc2)CC1 :: 52.3
CC1CCN(CC[C@@H](C)Oc2ccc(Cl)cc2)CC1 :: 13.9
CC1CCN(CC[C@H](C)Oc2ccc(Cl)cc2)CC1 :: 65.9
C(/C=C/c1ccc2c(c1)OCO2)=C\CN1CCCCC1 :: 554
CC1CCN(C[C@H](C)COc2ccc(Cl)cc2)CC1 :: 40.8
CC1CCN(C[C@@H](C)COc2ccc(Cl)cc2)CC1 :: 62
CC1CCN(C[C@H](C)Oc2ccc(Cl)cc2)CC1 :: 332
CC1CCN([C@@H](C)COc2ccc(Cl)cc2)CC1 :: 186
CC1CCN([C@H](C)CCOc2ccc(Cl)cc2)CC1 :: 15.1
CC1CCN(CCOc2ccc(Cl)cc2)CC1 :: 239
CC1CCN([C@@H](C)CCOc2ccc(Cl)cc2)CC1 :: 31.6
CC1CCN(CCCOc2ccc(Cl)cc2)CC1 :: 38.6
CC1CCN(C[C@@H](C)Oc2ccc(Cl)cc2)CC1 :: 318
